Value source: paper PMC11809514

molecular target: Recombinant TbrCatL (Trypanosoma brucei rhodesiense, UniProt Q95PM0); construct: gift: Prof Conor Caffrey (University of California San Diego); assay: TbrCatL inhibition, cleavage of fluorogenic substrate Z-FR-AMC; settings: two independent experiments, seven concentrations in triplicate; read-out: IC50 against TbrCatL
Sequence (Q95PM0 entry or part of it): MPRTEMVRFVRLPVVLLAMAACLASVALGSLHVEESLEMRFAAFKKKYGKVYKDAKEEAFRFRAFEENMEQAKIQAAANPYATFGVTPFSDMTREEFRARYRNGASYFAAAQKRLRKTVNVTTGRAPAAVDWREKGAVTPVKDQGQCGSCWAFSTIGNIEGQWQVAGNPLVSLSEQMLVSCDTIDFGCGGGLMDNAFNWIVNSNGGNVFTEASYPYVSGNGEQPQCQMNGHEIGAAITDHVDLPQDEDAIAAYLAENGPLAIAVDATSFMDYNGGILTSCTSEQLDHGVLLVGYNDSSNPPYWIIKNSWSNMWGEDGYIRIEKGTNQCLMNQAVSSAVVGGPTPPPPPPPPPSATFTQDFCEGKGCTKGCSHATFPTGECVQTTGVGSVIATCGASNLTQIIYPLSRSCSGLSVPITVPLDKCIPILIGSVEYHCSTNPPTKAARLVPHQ
readout: IC50

Using the record for Clc1ccc2c(NCc3ccco3)ccnc2c1 [Compound 5] , report its IC50.
29 µM

* * *

biological target: Recombinant cruzain (Trypanosoma cruzi); construct: gift: Allison Doak and Prof Brian Shoichet (University of California San Francisco); assay: Cruzain inhibition, cleavage of fluorogenic substrate Z-FR-AMC; details: two independent experiments, seven concentrations in triplicate; read-out: IC50 against cruzain
Sequence (P25779 123-467): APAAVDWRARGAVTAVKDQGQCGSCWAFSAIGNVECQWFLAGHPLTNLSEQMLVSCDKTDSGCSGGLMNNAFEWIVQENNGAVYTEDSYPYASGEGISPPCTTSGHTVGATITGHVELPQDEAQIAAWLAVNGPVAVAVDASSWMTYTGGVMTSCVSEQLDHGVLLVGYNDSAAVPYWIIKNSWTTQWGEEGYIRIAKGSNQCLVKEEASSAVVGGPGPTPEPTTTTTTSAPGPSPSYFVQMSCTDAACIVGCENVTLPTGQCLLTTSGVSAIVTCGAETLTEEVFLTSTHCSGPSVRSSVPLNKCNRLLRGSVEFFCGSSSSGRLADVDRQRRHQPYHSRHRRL
readout: IC50 (µM)
Use µM as the unit, but write only the number.

Using the record for Clc1ccc2c(NCc3ccco3)ccnc2c1 , report its IC50.
23

* * *

Test: In vitro cytotoxicity over L929 cell line (alamarBlue)
Format: cell-based, mouse
Settings: mouse, L929 cells (mouse fibroblasts); uninfected L929 cells; 96 h incubation
Protocol: In vitro cytotoxic activity test of compounds and CC 50 determination over L929 cell line - For this bioassay, 4,000 L929 cells in 200 μL of RPMI-1640 medium (pH 7.2-7.4) (Gibco BRL) plus 10% foetal bovine serum and 2 mM glutamine were added to each well of a 96-well microtiter plate that was incubated for three days at 37 °C. […] IC50 over T. cruzi and L929 cells were determined by linear interpolation and the selectivity index (SI) was calculated by the ratio of CC50 L929 cells/ IC50 T. cruzi.
readout: CC50 at 96 h

Using the record for Clc1ccc2c(NC3CCCCC3)ccnc2c1 , report its CC50 at 96 h.
< 2300 nM
